experimental target: CYP1A2 (Homo sapiens, UniProt P05177)
Sequence (P05177 whole entry): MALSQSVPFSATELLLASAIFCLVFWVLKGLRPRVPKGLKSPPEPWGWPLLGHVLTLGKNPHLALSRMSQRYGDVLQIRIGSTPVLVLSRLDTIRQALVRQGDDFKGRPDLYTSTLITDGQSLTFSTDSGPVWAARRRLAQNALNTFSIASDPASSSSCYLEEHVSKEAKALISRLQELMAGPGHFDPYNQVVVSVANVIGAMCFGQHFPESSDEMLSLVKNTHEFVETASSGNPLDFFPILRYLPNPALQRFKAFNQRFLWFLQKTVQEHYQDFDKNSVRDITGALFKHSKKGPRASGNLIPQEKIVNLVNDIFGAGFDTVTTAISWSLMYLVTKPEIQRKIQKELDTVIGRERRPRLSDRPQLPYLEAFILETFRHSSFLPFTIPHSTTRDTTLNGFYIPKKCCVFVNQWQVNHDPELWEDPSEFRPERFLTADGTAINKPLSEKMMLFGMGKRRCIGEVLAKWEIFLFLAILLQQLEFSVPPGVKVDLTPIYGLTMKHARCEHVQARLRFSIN
assay name: Inhibition of CYP1A2 (unknown origin) at 10 uM
Format: ADME
Entries and their inhibition at 10 µM values follow.
Please state the figure in %; there is no need to write the unit.

- compound: "Cl.c1cncc(OC[C@H]2CNCCN2c2nc3ncccc3o2)c1"
  endpoint unit: "%"
  inhibition at 10 µM: 25
- compound: "c1cncc(OCC2CNCCN2c2nc3ccccc3o2)c1 (racemic)"
  endpoint unit: "%"
  inhibition at 10 µM: 36
- compound: "Cc1cc(NC(=O)N2CCNCC2COc2cccnc2)ccc1Br (racemic)"
  endpoint unit: "%"
  inhibition at 10 µM: 48
- compound: "COc1ccc2nc(N3CCNC[C@@H]3COc3cccnc3)sc2c1"
  endpoint unit: "%"
  inhibition at 10 µM: 63
- compound: "Fc1cccc2sc(N3CCNCC3COc3cccnc3)nc12 (racemic)"
  endpoint unit: "%"
  inhibition at 10 µM: 63

Now turn to the next compound.
If you can, please state the reported inhibition at 10 µM value of O=C(c1ccccc1)c1ccc(NC(=O)N2CCNCC2COc2cccnc2)cc1 (racemic) .
16
